assay: folding stability dG unfold (combined trypsin and chymotrypsin); higher = more stable
Below, each entry is listed alongside its reported folding stability dG unfold.
# output: bare number, implied unit kcal/mol

Please review the following examples before continuing.
chain="SAGGSAGGSAGAEELAKKLKELGFEVKVEKNEDGSLTLTVKFKPKPKPKKVVTKDGKEVKSAGGSAGGSAGG [r17_503_TrROS_Hall]" measurement_type="folding stability dG unfold" u=kcal/mol experimental_result=1.61
chain="SAGGWHTIQINVRRPGKPITPEKIKEALREAYPGYPIEVEDINPEDGRITITVPENAMPRIKEALMKSAGGS [r8_235_TrROS]" measurement_type="folding stability dG unfold" u=kcal/mol experimental_result=1.01
chain="SAIEITVMSDSPEEAKEKAKEFANWLQNRMRRDGLPDMPIPIKIEVIPVPPPKPKPKRDPDDGEWKPDPSAG [r14_475_TrROS]" measurement_type="folding stability dG unfold" u=kcal/mol experimental_result=0.487
chain="SAGGMTVTVLEVTEEEVIIDDKKEKIITITIKLPDGTEITVTLSTSEIEAKGLTKEEAVEYIAKKLLSAGGS [r16_625_JUSTAS]" measurement_type="folding stability dG unfold" u=kcal/mol experimental_result=3.99

Read the next record carefully.
Q: Would you mind telling me what folding stability dG unfold value was observed for PFRVMVDLERDPEDGWYKVTIMVQAKDGRPITPELIENAAREIFKQGFPIKKIKLEPYPNGYVHFKIEIPLS [r1_408_TrROS] ?
Result: 2.65
